Taken from paper PMC12040169.

- TEST NAME: in vitro
- STUDY CONDITIONS: human, hela cells, % viability
Label Y when viability at 28.5 h, 10 µM is strictly below 90%; otherwise label N.

molecule="Nc1nc2c(nc(OCc3ccccc3)n2C2OC(CO)C(O)C2O)c(=O)[nH]1 (stereo not shown)" category=Y
molecule=O=C(c1ccco1)N1CCN(Cc2nc3ccccc3c(=O)n2-c2ccc(F)cc2)CC1 category=N
molecule="CS(=O)(=O)N1CCc2c([nH]c3ccccc23)C12CCN(Cc1ccccc1)C2 (stereo not shown)" category=N
molecule=CC(=O)Nc1ccc(-c2ccc(COC3CCN(C(=O)Cc4ccc(Cl)cc4)CC3)cc2)cc1 category=N

* * *

- TEST NAME: in vitro
- STUDY CONDITIONS: human, hela cells, % viability
METRIC NAME: viability at 28.5 h, 10 µM (%)

compound="O=C(CSCCO)Nc1ccc(Oc2ccccc2)cc1 [CBK269167]" observed_result=98.4
compound="CCCCSc1nc(N)cc(N2CCC(N3CCCC3=O)CC2)n1 [CBK307525]" observed_result=108
compound="CCN1CCCC1CNS(=O)(=O)c1cc(C(N)=O)ccc1OC (stereo not drawn) [CBK267815]" observed_result=115
compound="CN(C)CCSc1cncc(N2CCCC2)n1 [CBK105294]" observed_result=104
compound="O=C(CCC1CCCC1)N1CCC(O)(c2cccnc2)CC1 [CBK283603]" observed_result=101
compound="Cc1ccc(C)c(Oc2coc3cc(OCC(=O)Nc4ccccc4C(C)C)ccc3c2=O)c1 [CBK265906]" observed_result=113
compound="N#Cc1ccc(N2CCN(CCCNC(=O)Nc3ccccc3)CC2)cc1 [CBK267861]" observed_result=95
compound="N#Cc1c[nH]c(C(=O)NC2CCN(C(=O)c3ccccc3)CC2)c1 [CBK306433]" observed_result=91
compound="O=C(Cn1nc(C(=O)O)c2ccccc2c1=O)c1ccc(C2CCCCC2)cc1 [CBK297538]" observed_result=89.5
compound="Cc1nnc(SCC2=NN(c3nc4ccccc4[nH]3)C(=O)C2)s1 [CBK293979]" observed_result=108
compound="CN(C)CCn1c(C(=O)O)cc2ccccc21 [CBK268234C]" observed_result=110
compound="O=C1/C(=C/NCc2cccnc2)C(c2ccccc2)=NN1c1ccc([N+](=O)[O-])cc1 [CBK262911]" observed_result=97.6
compound="O=C(O)CCC(=O)Nc1ccc(-c2nc3cc(C(=O)c4ccccc4)ccc3[nH]2)cc1 [CBK267401]" observed_result=100
compound="Cc1cccc([C@H]2CN(C(=O)C3CCCC3)[C@@H]3CCN(C4CCCC4)C[C@H]23)c1 [CBK285529]" observed_result=118
compound="COc1ccc2c(c1)C1(CC(=O)N(CC(=O)N(C)C)C1=O)C(=O)N2CC(=O)c1ccccc1 (stereo not drawn) [CBK075913]" observed_result=96.9
compound="COc1ccccc1-c1ccc(CNC(Cc2ccsc2)c2nccs2)cc1 (stereo not drawn) [CBK286315]" observed_result=86.7
compound="O=C(N[C@H]1CO[C@H]2[C@@H]1OC[C@@H]2n1cc(-c2ccccn2)nn1)c1ccc(C(F)(F)F)cc1 [CBK289507]" observed_result=89.7
compound="COc1ccc(N2CCN(CC(O)COc3ccc4c(C)cc(=O)oc4c3)CC2)cc1 (stereo not drawn) [CBK269847]" observed_result=86.5
compound="COCCn1cc(C(=O)N2CCCC2c2cc(C)on2)c2ccccc21 (stereo not drawn) [CBK305289]" observed_result=90.4
compound="O=C1/C(=C/c2ccc3c(c2)OCO3)SC(=S)N1CCCC(=O)N1CCCc2ccccc21 [CBK264676]" observed_result=98.2
compound="O=C(c1ccc(F)cc1)[C@H]1CCCN(C(=O)c2ccco2)C1 [CBK284328]" observed_result=80.7
compound="CCN1C(=O)c2ccccc2C(=O)[C@@]2(C)CN(C(=O)C(C)C)C[C@@H]12 [CBK281680]" observed_result=91.8
compound="CN(C)CC(O)c1cc2n(n1)CCCN(CC(=O)NCc1cccs1)C2 (stereo not drawn) [CBK306738]" observed_result=91.6
compound="Cn1cc(CC(=O)N2CCN(c3ccccc3)CC2)c2ccccc21 [CBK200168]" observed_result=95.8
compound="Nn1c(SCc2cc(=O)[nH]c3ccccc23)nnc1C(O)c1ccccc1 (stereo not drawn) [CBK268405]" observed_result=99.2
compound="COc1cccc2cc(C(=O)Nc3ccc4[nH]ccc4c3)oc12 [CBK149819]" observed_result=91.5
compound="O=C(Nc1ccc(OC(F)F)cc1)Nc1c(Br)cnc2cccnc12 [CBK107632]" observed_result=87.8
compound="COC(=O)CC[C@H]1CNC(=O)[C@@H]2[C@@H](CCN2S(C)(=O)=O)N1C [CBK289019]" observed_result=112
compound="O=S(=O)(NC1c2cccc3cccc(c23)C1N1CCNCC1)c1ccc(Cl)cc1 (stereo not drawn) [CBK264082]" observed_result=92.2
compound="CN(C)Cc1cc(C[C@@H]2C[C@H](NS(=O)(=O)c3ccccc3)C2(C)C)no1 [CBK289307]" observed_result=112

* * *

- TEST NAME: in vitro
- STUDY CONDITIONS: human, hela cells, % viability
Measured viability at 28.5 h, 10 µM values are reported for all entries that follow.
METRIC NAME: viability at 28.5 h, 10 µM (%)

compound=COc1ccc(CN2CCN(C(=O)c3ccccc3F)CC2)cc1OCc1ccccc1 observed_result=80.7
compound=O=C(C1CC1)N1CCc2cc(-c3cn4ccccc4n3)ccc21 observed_result=99.2
compound=Cc1ccc(CSCCNS(=O)(=O)c2ccsc2C(=O)O)cc1 observed_result=92.6
compound=Cc1c(-c2cccc(NC(=O)c3ccccc3)c2)nc2ncccn12 observed_result=67.3
compound=Cc1ccc(CNC(=O)CSc2nc(C)c(C)c(=O)[nH]2)cc1 observed_result=92.8
compound="CCOC(=O)CCNC(C)C1COc2ccccc2O1 (stereo not drawn) [CBK074284G]" observed_result=101

* * *

- TEST NAME: in vitro
- STUDY CONDITIONS: human, hela cells, % viability
Label 1 (yes) when viability at 28.5 h, 10 µM is strictly below 90%; otherwise label 0 (no).

compound=c1cncc(-c2csc(Nc3nc4cc5c(cc4s3)OCO5)n2)c1 category="1 (yes)"
compound=CC(=O)N1CCCN(C(=O)c2ncoc2-c2ccc(F)cc2)CC1 category="1 (yes)"
compound=CCCC1CCN(Cc2ccn(Cc3ccc(S(C)(=O)=O)cc3)c2)CC1 category="0 (no)"
compound=CCOc1cccc(C(=O)NC(=S)Nc2nc(C)c(C(=O)OC)s2)c1 category="0 (no)"
compound=CCCCSc1nnc(-c2ccc(Br)cc2)o1 category="0 (no)"
compound=CC(C)N(Cc1nc(-c2ccccc2)no1)C(=O)CCc1ccccc1 category="0 (no)"
compound="Cc1ccccc1C(NC(=O)C1CCN(S(=O)(=O)C(C)C)CC1)c1ccccn1 (stereo not shown)" category="0 (no)"
compound=COc1cc(/C=C2\SC(=N)NC2=O)cc(Br)c1OS(=O)(=O)c1ccc(C)cc1 category="0 (no)"

* * *

Measured viability at 28.5 h, 10 µM values are reported for all entries that follow.
- TEST NAME: in vitro
- STUDY CONDITIONS: human, hela cells, % viability
METRIC NAME: viability at 28.5 h, 10 µM (%)

compound="CC(NC(=O)c1ccc(-n2cccc2)cc1)c1ccccn1 (centres unmarked)" observed_result=91.4
compound="CC1CN(C(=S)Nc2ccc(NC(=S)N3CC(C)OC(C)C3)cc2)CC(C)O1 (centres unmarked)" observed_result=78.9
compound="Cc1nn(-c2ccccn2)c(N)c1C1CC(=O)N(c2ccc(C(=O)O)cc2)C1=O (centres unmarked)" observed_result=95.2
compound=CCN1CCN(Cc2c(C(C)C)[nH]c3ncccc23)CC1 observed_result=83.6
compound=COc1ccc(/C=N/NC(=O)CSc2nnc(C)n2-c2ccccc2)cc1 observed_result=114

* * *

- TEST NAME: in vitro
- STUDY CONDITIONS: human, hela cells, % viability
Measured viability at 28.5 h, 10 µM values are reported for all entries that follow.
METRIC NAME: viability at 28.5 h, 10 µM (%)

compound="COc1ccc(C(C)C)cc1-c1cnc2[nH]c(=O)n(C3CC3)c2n1 [CBK064915]" observed_result=91.2
compound="Nc1ncc(-c2ccc(C(F)(F)F)cc2)c(C2CCCN(C(=O)c3ccccc3)C2)n1 (centres unmarked) [CBK285790]" observed_result=89.2
compound="CN1CCN(C(S)=Nc2ccc(S(N)(=O)=O)cc2)CC1 [CBK265223]" observed_result=92.5
compound="O=C(O)c1cn(CCN2C(=O)c3ccccc3C2=O)nn1 [CBK286543]" observed_result=91
compound="O=C(CSc1nnc(-c2ccco2)n1-c1ccccc1)NCc1ccc2c(c1)OCO2 [CBK267308]" observed_result=85.3
compound="O=C(Nc1cnc(-c2cccc(C(F)(F)F)c2)c(-c2ccco2)n1)c1ccccn1 [CBK036873]" observed_result=88.5
compound="Nc1ncc(-c2cccc(OC(F)(F)F)c2)nc1-c1ccc(F)c(Cl)c1 [CBK064021]" observed_result=113
compound="Nc1ncc(-c2ccc(C(F)(F)F)cc2)c(C2CCCN(C(=O)CN3CCCC3)C2)n1 (centres unmarked) [CBK285649]" observed_result=91.6
compound="O=C(CCCSc1nc2sc3c(c2c(=O)[nH]1)CCCC3)NCCO [CBK263336]" observed_result=90.9
compound="COCC(=O)Nc1nc2c(s1)C[C@]1(C)CC[C@@H]3[C@H](OC(=O)[C@H]3C)[C@H]1[C@@H]2C [CBK289430]" observed_result=105
compound="Cc1sc(NC(=O)c2ccc(F)cc2Cl)c(C(=O)NCc2cccnc2)c1C [CBK270319]" observed_result=82.9
compound="Cc1cnc(NC(=O)c2ncoc2-c2cccs2)s1 [CBK283977]" observed_result=102
compound="Cc1cc(Cl)c(OCCNCCN)c(Br)c1 [CBK265079]" observed_result=91.5
compound="Cc1ccc(NC(=S)NC(=O)Cc2ccccc2)c(O)c1 [CBK264337]" observed_result=106
compound="O=C(/C=C/c1ccsc1)Nc1ccc(F)cc1 [CBK057139]" observed_result=93.9
compound="O=C(NO)c1nc[nH]c1C(=O)NO [CBK262077]" observed_result=97.7
compound="Cc1cnc2[nH]c(C(C)C)c(CN3CCCOCC3)c2c1 [CBK284742]" observed_result=90.7
compound="Cc1cc(C(=O)N2CCc3c(sc4ncnc(N)c34)C2)c(C)s1 [CBK304980]" observed_result=88.5
compound="CCCS(=O)(=O)NC1CC(C)(C)Cc2c1cnn2-c1ccccc1 (centres unmarked) [CBK307265]" observed_result=98.1
compound="CC(=O)Nc1ccc(/C=N/c2ccccc2)cc1 [CBK012258]" observed_result=96.4
compound="Cc1c(C(=O)O)sc2nc(SCC(=O)NCc3ccccc3)[nH]c(=O)c12 [CBK287609]" observed_result=94.2
compound="O=[N+]([O-])c1nn(-c2ccc3c(c2)OCCO3)[n+]([O-])c1NCCN1CCN(c2ccccc2F)CC1 [CBK268314]" observed_result=109
compound="CC(C)C1CC(CCNCc2ccc(N(C)C)cc2)(c2ccccc2)CCO1 (centres unmarked) [CBK266210]" observed_result=98.9
compound="CCC(C(=O)Nc1nccs1)N(C)Cc1n[nH]c2c1CCC2 (centres unmarked) [CBK307685]" observed_result=99
compound="c1ccc(Oc2ccc(Nc3cccc(-c4ccc(N5CCOCC5)cc4)n3)cc2)cc1 [CBK036986]" observed_result=95.4
compound="Cc1cc(C(=O)CN(C)S(=O)(=O)c2ccc(Cl)c(Cl)c2)c(C)n1C [CBK295661]" observed_result=102
